Please consider the recorded pKd for human RORγt ligand binding domain (RORγt LBD) (Homo sapiens (Human)) in what follows.
pKd: −log10 of the molar value.

- Compound: "CCn1nc(C(=O)NC[C@]2(O)CC[C@@H](S(C)(=O)=O)CC2)c(Cl)c1-c1cnc(CCCC(F)(F)F)cc1OC(F)F [Example 33]"
  Target Desc: "human RORγt ligand binding domain (RORγt LBD) (Homo sapiens (Human))"
  pKd: 7.21
- Compound: "CCn1nc(C(=O)NC[C@H]2CC[C@H](S(C)(=O)=O)CC2)c(Cl)c1-c1ncc(CC(C)(C)C(F)(F)F)cc1OC(F)F [Example 52]"
  Target Desc: "human RORγt ligand binding domain (RORγt LBD) (Homo sapiens (Human))"
  pKd: 8.33
- Compound: "CCn1nc(C(=O)NC[C@H]2CC[C@H](S(C)(=O)=O)CC2)c(Cl)c1-c1cnc(O[C@H](C)C(F)(F)F)cc1OC [Example 65]"
  Target Desc: "human RORγt ligand binding domain (RORγt LBD) (Homo sapiens (Human))"
  pKd: 7.92
- Compound: "CCn1nc(C(=O)NC[C@H]2CC[C@H](S(C)(=O)=O)CC2)c(C)c1-c1cnc(C[C@H](C)C(F)(F)F)cc1OC(F)F (single isomer, unassigned) [Example 16]"
  Target Desc: "human RORγt ligand binding domain (RORγt LBD) (Homo sapiens (Human))"
  pKd: 8.28
- Compound: "CCn1nc(C(=O)NC[C@@]2(O)CC[C@H](S(C)(=O)=O)C[C@@H]2O)c(C)c1-c1cnc(CC(C)(C)C(F)F)cc1OC(F)F (stereo in doubt) [Example 43]"
  Target Desc: "human RORγt ligand binding domain (RORγt LBD) (Homo sapiens (Human))"
  pKd: 7.18
- Compound: "CCn1nc(C(=O)NC[C@]2(O)CC[C@@H](S(C)(=O)=O)CC2)c(C)c1-c1cnc(CC(C)(C)C(F)F)cc1OC(F)F [Example 42]"
  Target Desc: "human RORγt ligand binding domain (RORγt LBD) (Homo sapiens (Human))"
  pKd: 7.46

Cited source: patent US11034658B2
